Form: system (AChE from electric eel (Electrophorus electricus, UniProt O42275)), quantity (IC50), values below.
Quantity Name: IC50

[[record]]
smiles_repr = "COc1ccc(C(=O)CN2CCN(Cc3ccccc3)CC2)c(O)c1"
result_value = "1.59 µM"

[[record]]
smiles_repr = "COc1ccc(C(=O)CN2CCN(Cc3ccc(Cl)cc3)CC2)c(O)c1"
result_value = "2.63 µM"

[[record]]
smiles_repr = "COc1ccc(C(=O)CN2CCN(Cc3ccc(C)cc3)CC2)c(O)c1"
result_value = "0.61 µM"

[[record]]
smiles_repr = "COc1ccc(C(=O)CN2CCN(Cc3ccc([N+](=O)[O-])cc3)CC2)c(O)c1"
result_value = "7.04 µM"

